Test system: ATP;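 further: ATP exposure 15 min at 22 °C before imaging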
Experiment: switch fluorescence ratio, 500 uM ATP over buffer (Cy3 cluster intensity, sum of 5 cycles each) (fold (ratio)); higher = stronger signal-on switching upon ATP binding; sequences stand for … in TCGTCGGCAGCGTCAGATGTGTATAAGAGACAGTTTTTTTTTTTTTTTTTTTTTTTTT…TC
Details: aptamer strand: ATP DNA aptamer (quencher-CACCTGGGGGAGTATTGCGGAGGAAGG + anchor), 100 nM annealed; ATP concentration: 500 uM
parameter_measured: switch fluorescence ratio
Numbers only.

State its switch fluorescence ratio: "ATTTGTTGGT"
0.991

Provide switch fluorescence ratio for all items below, preserving their order.
1. GTAGAAATGT
2. GGGAAGAACC

[0.981, 1.02]

----------
Tested on: ATP;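 further: ATP exposure 15 min at 22 °C before imaging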
Test: switch fluorescence ratio, 500 uM ATP over buffer (Cy3 cluster intensity, sum of 5 cycles each) (fold (ratio)); higher = stronger signal-on switching upon ATP binding; sequences stand for … in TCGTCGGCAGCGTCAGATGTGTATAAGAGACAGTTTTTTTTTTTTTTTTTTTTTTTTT…TC
Settings: aptamer strand: ATP DNA aptamer (quencher-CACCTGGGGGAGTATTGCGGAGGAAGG + anchor), 100 nM annealed; ATP concentration: 500 uM
Kindly state switch fluorescence ratio for each of the entries shown.
Answers are plain numbers.

Please report the measured switch fluorescence ratio for "GATTAACGGT" tested on ATP.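 Further: ATP exposure 15 min at 22 °C before imaging.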
1.01

Hi! Can you tell me switch fluorescence ratio for each of these sequences?
1. TTCAGGATA
2. GATTCGTGAC
3. GACTTTTAGG
4. TTTTGTGTTA
5. TAAGGCGGAG
6. TCTGGGAGGT

1: 1.01; 2: 1.03; 3: 1.01; 4: 0.997; 5: 0.995; 6: 0.975

Record switch fluorescence ratio per entry; entries follow.
1. CGTAACGGGA
2. TTAAAATATT
3. CACGGTTGGG
4. AGGGAGCTCC

[1.04, 0.993, 0.976, 1.01]

Quick one: give me switch fluorescence ratio for each item below, same order please.
1. TCAGTTTGAG
2. ACGCGGGTTT

0.978
1.02

----------
Tested on: ATP;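 further: ATP exposure 15 min at 22 °C before imaging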
Test: switch fluorescence ratio, 500 uM ATP over buffer (Cy3 cluster intensity, sum of 5 cycles each) (fold (ratio)); higher = stronger signal-on switching upon ATP binding; sequences stand for … in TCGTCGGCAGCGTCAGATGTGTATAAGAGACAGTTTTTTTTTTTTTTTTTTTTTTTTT…TC
Conditions: aptamer strand: ATP DNA aptamer (quencher-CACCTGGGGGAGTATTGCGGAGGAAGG + anchor), 100 nM annealed; ATP concentration: 500 uM
parameter_measured: switch fluorescence ratio
One number for each entry.

Quick one: give measured switch fluorescence ratio for "GGCGTCGTAT"
0.996

For each listed entry, give its switch fluorescence ratio.
1. TCACATGGGA
2. AAAAGTATAC
3. GGGCCAGGTA
4. TTAGTTTTCT

1. 0.976
2. 1.06
3. 0.985
4. 0.96

----------
Tested on: ATP;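 further: ATP exposure 15 min at 22 °C before imaging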
Experiment: switch fluorescence ratio, 500 uM ATP over buffer (Cy3 cluster intensity, sum of 5 cycles each) (fold (ratio)); higher = stronger signal-on switching upon ATP binding; sequences stand for … in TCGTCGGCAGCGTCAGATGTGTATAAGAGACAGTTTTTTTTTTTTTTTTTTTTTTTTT…TC
Settings: aptamer strand: ATP DNA aptamer (quencher-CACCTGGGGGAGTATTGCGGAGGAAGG + anchor), 100 nM annealed; ATP concentration: 500 uM
Cut-off 1 on switch fluorescence ratio, inclusive. At or above means 1; below means 0.

Given "GCGGGGCCAC" , state whether its switch fluorescence ratio is at least 1.
1

New cases:
Please tell me: is the sequence "ATGTGTGTGG" at or over 1 in terms of switch fluorescence ratio?
1

Confirm if switch fluorescence ratio reported for the sequence "ACGAGGGGGC" is 1 or above.
1

Please indicate if the recorded switch fluorescence ratio for "TGTTGAGGAA" meets or exceeds 1.
1

Check this sequence for switch fluorescence ratio at or above 1: "GATTAGGTGA"
1

Given the entry "AGGGGTTAAG" , answer whether its switch fluorescence ratio meets or surpasses 1.
0

Has "TCAGTAATAA" a recorded switch fluorescence ratio greater than or equal to 1?
1

In plain terms: is recorded switch fluorescence ratio at least 1 for "TACCAAAGAA" ?
1

Kindly determine if switch fluorescence ratio recorded for "AATTTTTTCC" is above or exactly 1.
1

In plain terms: is recorded switch fluorescence ratio at least 1 for "AGACAAATGC" ?
1

Has "AAGTGGGGTA" a recorded switch fluorescence ratio greater than or equal to 1?
1

Hi, just wondering whether "AAACCTCTGG" shows switch fluorescence ratio of 1 or higher.
0
